# experiment: Clearance in Sprague-Dawley rat at 2 mg/kg, iv and 5 mg/kg, po
# Format: ADME, organism-based
# measurement setup: in vivo
Exercise: state measured clearance for each of the compounds provided.
Give bare numbers, in mL/min/kg.

[
  {
    "compound": "CCCCCOC(=O)N1CCN(C(=O)[C@H](CCC(=O)O)NC(=O)c2cc(N3CCN(C(C)=O)CC3)cc(-c3ccccc3)n2)CC1",
    "unit spec": "mL/min/kg",
    "clearance": 70
  },
  {
    "compound": "CCCCCOC(=O)N1CCN(C(=O)[C@H](CCC(=O)O)NC(=O)c2cc(N3CCC(C(=O)N(CC)CC)CC3)cc(-c3ccccc3)n2)CC1",
    "unit spec": "mL/min/kg",
    "clearance": 13
  },
  {
    "compound": "CCCCCOC(=O)N1CCN(C(=O)[C@H](CCC(=O)O)NC(=O)c2cc(N3CCC(C(=O)N4CCC4)CC3)cc(-c3ccccc3)n2)CC1",
    "unit spec": "mL/min/kg",
    "clearance": 9
  },
  {
    "compound": "CCCCCOC(=O)N1CCN(C(=O)[C@H](CCC(=O)O)NC(=O)c2cc(N3CC[C@H](OCC(=O)N(C)C)C3)cc(-c3ccccc3)n2)CC1",
    "unit spec": "mL/min/kg",
    "clearance": 41
  },
  {
    "compound": "CCCCCOC(=O)N1CCN(C(=O)[C@H](CCC(=O)O)NC(=O)c2cc(N3CCC(C(=O)NCC)CC3)cc(-c3ccccc3)n2)CC1",
    "unit spec": "mL/min/kg",
    "clearance": 11
  },
  {
    "compound": "CCCCCOC(=O)N1CCN(C(=O)[C@H](CCC(=O)O)NC(=O)c2cc(N3CC[C@@H](OCC(=O)N(CC)CC)C3)cc(-c3ccccc3)n2)CC1",
    "unit spec": "mL/min/kg",
    "clearance": 87
  },
  {
    "compound": "CCCCCOC(=O)N1CCN(C(=O)[C@H](CCC(=O)O)NC(=O)c2cc(N3CCCC(CN4CCCC4)C3)cc(-c3ccccc3)n2)CC1 (some centres undefined)",
    "unit spec": "mL/min/kg",
    "clearance": 47
  },
  {
    "compound": "CCCCCOC(=O)N1CCN(C(=O)[C@H](CCC(=O)O)NC(=O)c2cc(N3CCC(C(N)=O)CC3)cc(-c3ccccc3)n2)CC1",
    "unit spec": "mL/min/kg",
    "clearance": 44
  }
]

Could you now look at the following compound, please?
In: Supply reported clearance belonging to this compound: CCCCOC(=O)N1CCN(C(=O)[C@H](CCC(=O)O)NC(=O)c2cc(N3CCC(C(=O)N(CC)CC)CC3)cc(-c3ccccc3)n2)CC1
Out: 24

---

# experiment: Metabolic stability in rat microsomes
# Assay type: ADME, Microsome
test readout: Stability

// solved cases for Stability follow
[
  {
    "molecule": "CCCCCOC(=O)N1CCN(C(=O)[C@H](CCC(=O)O)NC(=O)c2cc(N3CC[C@H](C(=O)N(C)C)C3)cc(-c3ccccc3)n2)CC1",
    "Stability": "Stable"
  },
  {
    "molecule": "CCCCCOC(=O)N1CCN(C(=O)[C@H](CCC(=O)O)NC(=O)c2cc(N3CCN(CCOC)CC3)cc(-c3ccccc3)n2)CC1",
    "Stability": "Stable"
  },
  {
    "molecule": "CCCCCOC(=O)N1CCN(C(=O)[C@H](CCC(=O)O)NC(=O)c2cc(N3CCC(C(=O)N(CC)CC)CC3)cc(-c3ccccc3)n2)CC1",
    "Stability": "Stable"
  },
  {
    "molecule": "CCCCCOC(=O)N1CCN(C(=O)[C@H](CCC(=O)O)NC(=O)c2cc(N3CC(C(N)=O)C3)cc(-c3ccccc3)n2)CC1",
    "Stability": "Stable"
  },
  {
    "molecule": "CCCCCOC(=O)N1CCN(C(=O)[C@H](CCC(=O)O)NC(=O)c2cc(N3CCCC(N)C3)cc(-c3ccccc3)n2)CC1 (some centres undefined)",
    "Stability": "Stable"
  }
]

Dear colleague, could you send me Stability for each of the items below? Thanks.
1. CCCCCOC(=O)N1CCN(C(=O)[C@H](CCC(=O)O)NC(=O)c2cc(N3CCC(CN(CC)CC)CC3)cc(-c3ccccc3)n2)CC1
2. CCCCCOC(=O)N1CCN(C(=O)[C@H](CCC(=O)O)NC(=O)c2cc(N3CC(CNC)C3)cc(-c3ccccc3)n2)CC1
3. CCCCCOC(=O)N1CCN(C(=O)[C@H](CCC(=O)O)NC(=O)c2cc(N3CCCC(CN4CCCC4)C3)cc(-c3ccccc3)n2)CC1 (some centres undefined)
4. CCCCCOC(=O)N1CCN(C(=O)[C@H](CCC(=O)O)NC(=O)c2cc(N3CCC(CCOC)CC3)cc(-c3ccccc3)n2)CC1
5. CCCCCOC(=O)N1CCN(C(=O)[C@H](CCC(=O)O)NC(=O)c2cc(N3CCC(C(=O)N4CCC4)CC3)cc(-c3ccccc3)n2)CC1

Out:
["Stable", "Stable", "Stable", "Stable", "Stable"]

Dear colleague, could you send me Stability for each of the items below? Thanks.
1. CCCCCOC(=O)N1CCN(C(=O)[C@H](CCC(=O)O)NC(=O)c2cc(N3CCN(CC(=O)N(CC)CC)CC3)cc(-c3ccccc3)n2)CC1
2. CCCCOC(=O)N1CCN(C(=O)[C@H](CCC(=O)O)NC(=O)c2cc(N3CCC(C(=O)NCC)CC3)cc(-c3ccccc3)n2)CC1
3. CCCCCOC(=O)N1CCN(C(=O)[C@H](CCC(=O)O)NC(=O)c2cc(N3CCC(COC)CC3)cc(-c3ccccc3)n2)CC1
4. CCCCCOC(=O)N1CCN(C(=O)[C@H](CCC(=O)O)NC(=O)c2cc(N3CCCC(C(=O)N(CC)CC)C3)cc(-c3ccccc3)n2)CC1 (some centres undefined)

Out:
1. Stable
2. Stable
3. Stable
4. Stable

---

# experiment: Clearance in Sprague-Dawley rat at 2 mg/kg, iv and 5 mg/kg, po
# Assay type: ADME, organism-based
# measurement setup: in vivo
test readout: clearance (mL/min/kg)
Numbers only, in mL/min/kg.

// solved cases for clearance follow
[
  {
    "entry smiles": "CCCCCOC(=O)N1CCN(C(=O)[C@H](CCC(=O)O)NC(=O)c2cc(N3CCC(CCN(C)C)CC3)cc(-c3ccccc3)n2)CC1",
    "unit spec": "mL/min/kg",
    "clearance": 145
  },
  {
    "entry smiles": "CCCCOC(=O)N1CCN(C(=O)[C@H](CCC(=O)O)NC(=O)c2cc(N3CCC(C(=O)N4CCCC4)CC3)cc(-c3ccccc3)n2)CC1",
    "unit spec": "mL/min/kg",
    "clearance": 5
  },
  {
    "entry smiles": "CCCCCOC(=O)N1CCN(C(=O)[C@H](CCC(=O)O)NC(=O)c2cc(N3CCC(C(=O)N4CCCC4)CC3)cc(-c3ccccc3)n2)CC1",
    "unit spec": "mL/min/kg",
    "clearance": 5
  }
]

Could you now look at the following compound, please?
In: Supply reported clearance belonging to this compound: CCCCCOC(=O)N1CCN(C(=O)[C@H](CCC(=O)O)NC(=O)c2cc(N3CCN(C)CC3)cc(-c3ccccc3)n2)CC1
Out: 141

---

# experiment: Effective half life in Sprague-Dawley rat at 2 mg/kg, iv and 5 mg/kg, po
# Assay type: ADME, organism-based
# measurement setup: in vivo, read-out: t1/2eff (converted)
Entry flag: true (1) if half-life reaches 40 min; false (0) if it does not.

[
  {
    "compound": "CCCCOC(=O)N1CCN(C(=O)[C@H](CCC(=O)O)NC(=O)c2cc(N3CCC(C(=O)N4CCCC4)CC3)cc(-c3ccccc3)n2)CC1",
    "classification": "true (1)"
  }
]

In: # check: half-life of CCCCCOC(=O)N1CCN(C(=O)[C@H](CCC(=O)O)NC(=O)c2cc(N3CCC(C(=O)NCC)CC3)cc(-c3ccccc3)n2)CC1 is greater than or equal to 40 min
Out: false (0)

In: # check: half-life of CCCCCOC(=O)N1CCN(C(=O)[C@H](CCC(=O)O)NC(=O)c2cc(N3CCC(C(=O)N(CC)CC)CC3)cc(-c3ccccc3)n2)CC1 is greater than or equal to 40 min
Out: false (0)

In: # check: half-life of CCCCCOC(=O)N1CCN(C(=O)[C@H](CCC(=O)O)NC(=O)c2cc(N3CCCC(CN4CCCC4)C3)cc(-c3ccccc3)n2)CC1 (stereo partly specified) is greater than or equal to 40 min
Out: false (0)

In: # check: half-life of CCCCCOC(=O)N1CCN(C(=O)[C@H](CCC(=O)O)NC(=O)c2cc(N3CCC(C(=O)N4CCCC4)CC3)cc(-c3ccccc3)n2)CC1 is greater than or equal to 40 min
Out: true (1)

In: # check: half-life of CCCCCOC(=O)N1CCN(C(=O)[C@H](CCC(=O)O)NC(=O)c2cc(N3CCN(C(C)=O)CC3)cc(-c3ccccc3)n2)CC1 is greater than or equal to 40 min
Out: false (0)
